System: OVCAR-4 ovarian
Assay Details: NCI tumour cell line growth inhibition, 48 h
Entry flag: condition met if TGI reaches 30 µM; condition not met if it does not.

Task item: Hi team, for `C=CC(=O)NC(N)=NC#N` , is the recorded TGI at or above 30 µM?
Reply: condition met

Task item: Hi team, for `O=C1c2cccnc2C(=O)c2c1c(C(=O)OCCN1CCCCC1)c1ccccn21` , is the recorded TGI at or above 30 µM?
Reply: condition not met

Task item: Hi team, for `CC(C)(C)c1ccc2c(c1)C#Cc1cc(C(C)(C)C)ccc1OCCCO2` , is the recorded TGI at or above 30 µM?
Reply: condition met

Task item: Hi team, for `CC(C)(C)OC(=O)N1C(OP(=O)(Oc2ccccc2)Oc2ccccc2)=CSc2ccccc21` , is the recorded TGI at or above 30 µM?
Reply: condition met

Task item: Hi team, for CC(NCc1c(O)ccc2ccc(=O)oc12)C(=O)O (stereo not given) , is the recorded TGI at or above 30 µM?
Reply: condition met

---

Test system: KM12 colon
Assay Details: NCI tumour cell line growth inhibition, 48 h
A collection of molecules and their measured TGI

// solved cases for TGI follow
• C=C1C(=O)O[C@H]2[C@H](OC(C)=O)[C@@H](C)CCCC3(C)OC3CCC3(CO3)[C@H](O)C[C@@H]12 (stereo partly specified) = 28.5 µM
• O=c1c2ccccc2c(/C=N\NC2=NCCN2)c2oc3ccccc3n12 = 34.4 µM

Task item: Supply reported TGI belonging to this molecule: O=C(OCCCl)C1OC(n2cc(F)c(=O)[nH]c2=O)CC1O (stereo unspecified)
Reply: > 100 µM

Task item: Supply reported TGI belonging to this molecule: C/C(=N\OCC(O)CNCCSCc1ccccc1)c1ccccc1Cl (stereo unspecified)
Reply: 40.2 µM

---

Test system: MDA-N
Assay Details: NCI tumour cell line growth inhibition, 48 h
Where a SMILES comes first, the peptide text is derived from it. [ ]: non-standard residue; d: D form. The star is where a group is joined. ξ: configuration not given here. ξF = NC(Cc1ccccc1)C(=O)O; Cbz = O=C(OCc1ccccc1)*; Aib = CC(C)(N)C(=O)O
Result Type: TGI

• CCOC(=O)CNC(=O)C(Cc1ccccc1)NC(=O)C(C)(C)NC(=O)OCc1ccccc1 (stereo not given) (Cbz-[Aib]-[ξF]-Gly-OEt) = > 100 µM
• C=C1C(=O)O[C@@H]2/C=C(\C)CC/C=C(\C)CC[C@@]12O = 6.42 µM
• COc1ccc2[nH]c3c(c2c1)CC(=O)N1CCCC(CC3O)C1 (stereo not given) = > 100 µM

With those in mind, consider the next compound.
Task item: Supply reported TGI belonging to this compound: `CN(Cc1cn(O)c2nc(=N)nc(N)c-2n1)c1ccc(C(=O)NC23CC4CC(CC(C4)C2)C3)cc1`
Reply: > 100 µM

---

Test system: OVCAR-8 ovarian
Assay Details: NCI tumour cell line growth inhibition, 48 h
Where a SMILES comes first, the peptide text is derived from it.
Result Type: TGI

// solved cases for TGI follow
- Cc1c(/C=N/NC(=S)Nc2ccc(Cl)cc2)c(=O)n(-c2ccccc2)n1C: > 60.6 µM
- C=CC(=O)N1C[C@@H]2CCOc3c(Cl)c(-c4c(O)cccc4F)c(F)c4ncnc(c34)N2C[C@H]1C: 56.6 µM
- CSc1nc2nn(Cc3ccccc3)cc2c(=O)[nH]1: > 100 µM
- C/C=C/C=C\C=C/C(O)C(C)C(CCC(C)C1OC(=O)C=CC1C)OP(=O)(O)O (stereo unspecified): 1.26 µM
- N#CC(C#N)=C/C=C/c1c(Cl)cccc1Cl: 3.48 µM

Task item: Supply TGI measured with OVCAR-8 ovarian for `CSc1nc(CO)c(CO)n1C` .
Reply: > 100 µM

Task item: Supply TGI measured with OVCAR-8 ovarian for O=C1CSC(c2ccccc2)N1c1ccc(-n2c(-c3ccccc3)nc3ccccc3c2=O)cc1 (stereo unspecified) .
Reply: > 100 µM

Task item: Supply TGI measured with OVCAR-8 ovarian for CC(c1ccc2c(c1)CCC1C2CC2OC23CC=CC(=O)[C@]13C)C1C[C@]2(C)O[C@]2(C)[C@H](O)O1 (stereo partly specified) .
Reply: > 100 µM

Task item: Supply TGI measured with OVCAR-8 ovarian for O=C1CC(c2ccccc2)Cc2nc3ccc(Br)cc3cc21 (stereo unspecified) .
Reply: > 100 µM

Task item: Supply TGI measured with OVCAR-8 ovarian for `O=[N+]([O-])c1cccc(-c2ncc3c(n2)-c2ccccc2C3)c1` .
Reply: > 100 µM

Task item: Supply TGI measured with OVCAR-8 ovarian for NC(=O)C1CCCN1C(=O)C(N)Cc1ccccc1 (stereo not drawn) (H-Phe-Pro-NH2; configuration not given here) .
Reply: > 100 µM

Task item: Supply TGI measured with OVCAR-8 ovarian for CCOC(=O)C1=C(C)NC(=O)NC1CN1C(=O)c2ccccc2C1=O (stereo unspecified) .
Reply: > 100 µM

Task item: Supply TGI measured with OVCAR-8 ovarian for `CC1(C)N=C(N)N=C(N)N1c1ccc(Cl)cc1` .
Reply: > 100 µM

Task item: Supply TGI measured with OVCAR-8 ovarian for `C/C=C(/C)C(=O)O[C@H]1[C@H]2[C@@H]([C@@H](OC(C)=O)[C@H](C)C(=O)[C@@]34C[C@@H](C)C(=O)[C@]3(/C=C(\C)[C@H]1OC(C)=O)O4)C2(C)C` .
Reply: 6.54 µM

Task item: Supply TGI measured with OVCAR-8 ovarian for `O=c1oc2ccccc2c(O)c1C(c1cnc2ccccc2c1)c1c(O)c2ccccc2oc1=O` .
Reply: > 100 µM

Task item: Supply TGI measured with OVCAR-8 ovarian for O=c1[nH]c(=O)n(C2CC(O)C(CO)O2)cc1C(F)(C(F)(F)F)C(F)(F)F (stereo unspecified) .
Reply: > 100 µM

Task item: Supply TGI measured with OVCAR-8 ovarian for `c1ccncc1` .
Reply: > 100 µM

Task item: Supply TGI measured with OVCAR-8 ovarian for `CCOC(=O)Cc1nnc2n(-c3ccccc3)c(=O)c3ccccc3n12` .
Reply: > 100 µM

---

Test system: SR leukemia
Assay Details: NCI tumour cell line growth inhibition, 48 h
Result Type: TGI

* CNC(=O)C1(C#N)C(c2ccccc2)C(C#N)(C(=O)NC)C1c1ccccc1 (stereo not given) | > 100 µM

Task item: Supply TGI measured with SR leukemia for `CC1(C)N=C(N)N=C(N)N1c1ccc(OCCCNC(=O)Nc2cccc(S(=O)(=O)F)c2)c(Cl)c1` .
Reply: > 100 µM

Task item: Supply TGI measured with SR leukemia for `Clc1cc(Cl)c2cc3cccc[n+]3cc2c1Cl` .
Reply: 32.9 µM

Task item: Supply TGI measured with SR leukemia for `CCCCCCCCCCCCCC1=C(O)C(=O)C(CC2=C(O)C(=O)C(CCCCCCCCCCCCC)=C(O)C2=O)=C(O)C1=O` .
Reply: > 100 µM

Task item: Supply TGI measured with SR leukemia for `Cc1cnc2oc3ccc(O)cc3c2c1-c1ccccc1` .
Reply: > 100 µM

---

Test system: OVCAR-4 ovarian
Assay Details: NCI tumour cell line growth inhibition, 48 h
Result Type: TGI (µM)
Could you give me the number in µM? Just the number is fine.

* O=C(NCCCNCCN1C(=O)c2cccc3cc([N+](=O)[O-])cc(c23)C1=O)c1cc(-c2ccccc2)nc2ccccc12 | 15.1

Task item: Supply TGI measured with OVCAR-4 ovarian for `COc1ccc2nc3c([N+](=O)[O-])ccc4c3c(c2c1)NCCN4CCN(C)C` .
Reply: 0.697

---

Test system: HCC-2998 colon
Assay Details: NCI tumour cell line growth inhibition, 48 h
Result Type: TGI (µM)
Could you give me the number in µM? Just the number is fine.

• Cc1ccc2cccc(OC(=O)Nc3cccc(C(F)(F)F)c3)c2n1 = 18.5
• CC(=O)c1cc2c(s1)C(=O)c1sccc1C2=O = 0.392
• Cn1c(=O)nc2n(-c3ccc(Cl)cc3)c3cc(Cl)ccc3nc-2c1=O = 14.1

With those in mind, consider the next molecule.
Task item: Supply reported TGI belonging to this molecule: `Cc1cc2c(c(O)c1-c1c(C)cc(O)c3c1C(=O)C=CC3=O)C(=O)C=CC2=O`
Reply: 10.1

---

Tested on: SK-OV-3 ovarian
Assay Details: NCI tumour cell line growth inhibition, 48 h
A collection of compounds and their measured TGI

// solved cases for TGI follow
- O/N=C(/CC(O)(C(F)(F)F)C(F)(F)F)c1ccccc1: > 10 µM
- COc1ccc(-c2nc3c(nc2-c2ccc(OC)cc2)C(N)=NS(=O)(=O)N3)cc1: > 100 µM
- CC(C)(C)C1CCC2c3c([nH]c4ccccc34)C3C(=O)N(c4ccccc4[N+](=O)[O-])C(=O)C3C2C1 (stereo unspecified): > 100 µM
- CN(C)CCNC(=O)c1cc(Cl)cc2cc3ccccc3nc12: 9.27 µM
- O=C(NCCCl)Nc1cccnc1: 43.5 µM

With those in mind, consider the next compound.
Task item: Supply reported TGI belonging to this compound: `CSc1nc(CO)c(CO)n1C`
Reply: > 100 µM
